Tested on: MCF7 breast
Assay: NCI-60 one-dose screen, 48 h (100 = growth as untreated, 0 = no growth, -100 = all killed)
Details: 10 µM unless noted
Compounds without any hit were thinned out: in the full panel of roughly 83,000, 20% have a hit. Active and inactive are the calls of the source. How the source made its calls: active means growth percent below 10; inactive means the rest.
READOUT: growth

Below, 5 compounds whose answers are already recorded.
| COMPOUND | growth |
| --- | --- |
| C[C@@H](C[C@H](CC1CC1)c1ccccc1)c1ccc2ccccc2c1 | 108% (inactive) |
| O=C(/C=C/c1cn(-c2ccccc2)nc1-c1cccc(Nc2ccnc3cc(Cl)ccc23)c1)c1ccc2c(c1)OCO2 | 81.1% (inactive) |
| CC(=O)c1cccc(Nc2ncnc3ccc(NC(=O)c4ccco4)cc23)c1 | 80.9% (inactive) |
| COc1ccc(-c2oc(=O)ccc2-c2cc(OC)c(OC)c(OC)c2)cc1F | 44% (inactive) |
| C=C1NC(=O)C(C(C)CC)NC(=O)C2CSCC(NC(=O)CCC(=O)O)C(=O)NC(Cc3ccccc3)C(=O)NC(C)C(=O)NC(CC(C)CC)C(=O)NC(C(=O)NC(Cc3ccccc3)C(=O)N3CCCC3C(=O)N2)C(C)OC(=O)C(CO)NC(=O)C(C(O)COC)N(C)C(=O)C(C(C)C)NC(=O)C(CC(C)CC)NC1=O (stereo unspecified) | 16.9% [6 µM] (inactive) |

// fetch growth given entry NC(N)=N/N=C/c1ccccc1
93% (inactive)

// fetch growth given entry Cc1cc(C)c(C#N)c(SCC(=O)c2sc3c(C#N)c(C)cc(C)[n+]3c2[O-])n1
13.4% (inactive)

// fetch growth given entry COc1ccc(-c2nnc(SCC(=O)Nc3ccc(C(=O)/C=C/c4ccc(Cl)cc4)cc3)n2-c2ccccc2)cc1
95.3% (inactive)

// fetch growth given entry COc1ccc(-n2nc(C(=O)NCC(=O)Nc3nc4cc(OC)ccc4s3)c3ccccc3c2=O)cc1
-6.52% (active)

// fetch growth given entry Clc1ccc(Nc2ncnc3c2sc2ncccc23)c(Cl)c1
18.4% (inactive)

// fetch growth given entry O=C(Nc1cccc(Cl)c1)Nc1cc(C(F)(F)F)ccc1Cl
16.1% (inactive)

// fetch growth given entry CC(C)(C)CC(C)(C)NCc1cc(C(C)(C)C)cc(CNC(C)(C)CC(C)(C)C)c1O
31.6% (inactive)

// fetch growth given entry COc1cc(C)cc2oc3oc(=O)c(-c4csc(-c5cc6ccccc6oc5=O)n4)cc3c(=O)c12
101% (inactive)

// fetch growth given entry Clc1ccc(Nc2ncnc3c2sc2ncccc23)cc1
19.5% (inactive)

// fetch growth given entry C#CCNC(=S)N/N=C(\C)c1ccccn1
4.54% (active)

// fetch growth given entry CC(C)CC(NC(=O)C(CCCN=C(N)N)NC(=O)OCc1ccccc1)C(=O)NC(CNC(=O)/C=C/c1ccccc1)C(C)C (stereo unspecified)
91% (inactive)

// fetch growth given entry Nc1ncnc2c1N=C(c1ccc(F)cc1)CC(c1sc(Cl)nc1Cl)N2 (stereo unspecified)
86.6% (inactive)

// fetch growth given entry CC(C)NC(=O)OCC#CCOC(=O)NC(C)C
94.4% (inactive)

// fetch growth given entry O=C1OC(c2ccc(-c3ccccc3)cc2)=C/C1=C/c1c(Cl)cccc1Cl
76% (inactive)

// fetch growth given entry COc1ccc(C2CC(c3cccc(Nc4ccnc5cc(Cl)ccc45)c3)=NN2c2ccccc2)cc1 (stereo unspecified)
47.6% (inactive)

// fetch growth given entry CN(C)c1ccc(/C=N/Nc2nnc3n2N=C(c2ccc(Cl)cc2)CS3)cc1
77.4% (inactive)

Data provenance is PubChem BioAssay (NCI).
